# study.target: hKv3.1 (Homo sapiens)
# Construct: expressed in transfected cells
# Sequence (P48547 whole entry): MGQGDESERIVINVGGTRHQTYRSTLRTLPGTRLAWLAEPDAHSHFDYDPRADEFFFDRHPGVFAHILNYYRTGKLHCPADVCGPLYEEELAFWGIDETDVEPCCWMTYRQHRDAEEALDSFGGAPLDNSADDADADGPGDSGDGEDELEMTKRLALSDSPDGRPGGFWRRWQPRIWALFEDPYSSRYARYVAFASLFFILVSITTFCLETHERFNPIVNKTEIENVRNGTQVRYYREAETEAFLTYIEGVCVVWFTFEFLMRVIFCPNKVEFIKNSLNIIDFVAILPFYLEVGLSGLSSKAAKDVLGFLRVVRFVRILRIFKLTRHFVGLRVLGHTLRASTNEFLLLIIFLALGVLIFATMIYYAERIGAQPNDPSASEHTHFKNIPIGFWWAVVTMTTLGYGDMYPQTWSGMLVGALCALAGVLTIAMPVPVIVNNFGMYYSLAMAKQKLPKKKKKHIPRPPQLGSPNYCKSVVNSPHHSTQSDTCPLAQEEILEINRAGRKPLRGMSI
# method.summary: Automated patch clamp electrophysiology (Patchliner), CHO/Kv3.1 cells
# Format: cell-based
# reported.conditions: 10 μM compound; peak current at voltage step of −10 mV vs vehicle (0.33% DMSO); hKv3.1 in CHO-K1, whole-cell
reported.metric: Kv3.1 Activity at 10 μM Potentiation (%)

- molecule: "COc1cc(Oc2cnnc(N3C(=O)NC(C)(C)C3=O)c2)ccc1C"
  study.target: "hKv3.1 (Homo sapiens)"
  Kv3.1 Activity at 10 μM Potentiation (%): 26

I: CC[C@H]1NC(=O)N(c2ccnc(Oc3ccc(C)c(OC)c3)n2)C1=O
II: COc1cc(Oc2nccc(N3C(=O)NC4(CCCCC4)C3=O)n2)ccc1C
[in] Between the entries labelled I and II , which has a larger Kv3.1 Activity at 10 μM Potentiation (%) value on record? Selection: enter the item's label.
[out] II
